STUDY TARGET: Protein kinase C iota type (Homo sapiens) (UniProt P41743)
Sequence (whole entry): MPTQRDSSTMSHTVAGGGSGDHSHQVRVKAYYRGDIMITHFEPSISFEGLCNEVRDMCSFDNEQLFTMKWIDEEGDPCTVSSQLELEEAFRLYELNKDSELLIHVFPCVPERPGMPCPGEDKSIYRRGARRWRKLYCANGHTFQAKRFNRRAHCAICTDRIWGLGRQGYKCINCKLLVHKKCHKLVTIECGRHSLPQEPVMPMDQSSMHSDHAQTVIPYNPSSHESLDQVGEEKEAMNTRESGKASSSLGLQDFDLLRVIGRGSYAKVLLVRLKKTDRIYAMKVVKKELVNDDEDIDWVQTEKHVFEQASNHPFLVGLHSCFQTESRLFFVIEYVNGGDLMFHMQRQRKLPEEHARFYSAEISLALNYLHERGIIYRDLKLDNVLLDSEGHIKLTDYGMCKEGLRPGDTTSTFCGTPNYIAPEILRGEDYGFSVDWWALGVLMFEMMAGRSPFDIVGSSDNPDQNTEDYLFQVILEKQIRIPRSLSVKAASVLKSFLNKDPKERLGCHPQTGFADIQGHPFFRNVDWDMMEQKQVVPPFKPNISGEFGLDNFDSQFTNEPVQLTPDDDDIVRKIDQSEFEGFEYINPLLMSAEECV
RUN PARAMETERS: at 0.1 µM
Description: GSK_PKIS: PKC-iota mean inhibition at 0.1 uM [Nanosyn]
PROPERTY LABEL: inhibition (%)
Report the figure in % without appending any unit label.

- MOLECULE: "CN1CCC(n2cnc(-c3ccc(F)cc3)c2-c2ccnc(N)n2)CC1"
  inhibition, %: 0.59
- MOLECULE: "Cc1ccc2c(-c3ccnc(Nc4ccccc4)n3)c(-c3ccc(F)cc3)nn2n1"
  inhibition, %: 1.43
- MOLECULE: "COC(=O)c1sc(-n2cnc3cc(OC)c(OC)cc32)cc1OCc1ccccc1C(F)(F)F"
  inhibition, %: 0.97
- MOLECULE: "CCNC(=O)O[C@H]1CN[C@H](C#Cc2cc3ncnc(Nc4ccc(OCc5cccc(F)c5)c(Cl)c4)c3s2)C1"
  inhibition, %: 1.37
- MOLECULE: "CCN(CC)S(=O)(=O)c1ccc(OC)c(Nc2ncc(-c3ccccc3)o2)c1"
  inhibition, %: 0.63

The recorded inhibition with Protein kinase C iota type (Homo sapiens) (UniProt P41743) for `Fc1ccc(-c2cc(-c3c[nH]nc3-c3ccccn3)ccn2)cc1` was 2.53

The recorded inhibition with Protein kinase C iota type (Homo sapiens) (UniProt P41743) for `COc1cc(/C=N/Nc2ncnc3[nH]ncc23)ccc1O` was 2.83

The recorded inhibition with Protein kinase C iota type (Homo sapiens) (UniProt P41743) for `COc1ccc(CNC(=O)c2ccc(-c3cc(-c4nnc(C)o4)ccc3C)cc2)cc1` was 2.77

The recorded inhibition with Protein kinase C iota type (Homo sapiens) (UniProt P41743) for `CCn1c(-c2nonc2N)nc2c(C#CC(C)(C)O)nc(OC[C@H](N)c3ccccc3)cc21` was 0.16

The recorded inhibition with Protein kinase C iota type (Homo sapiens) (UniProt P41743) for `COc1ccc(-c2oc3ncnc(N)c3c2-c2ccc(NC(=O)Nc3cc(C(F)(F)F)ccc3F)cc2)cc1` was 3.51

The recorded inhibition with Protein kinase C iota type (Homo sapiens) (UniProt P41743) for `CCn1c(-c2nonc2N)nc2c(C#CC(C)(C)O)ncc(OC3CCNCC3)c21` was -0.03

All figures here come from ChEMBL document CHEMBL1961873.
